// data source = patent US12492173B2

Reported herbicidal action ECHCG values follow for various molecules
# Tested on: Echinochloa crus-galli
# EXPERIMENT NOTES: Pre-emergence herbicidal action, ECHCG
# Assay type: in vivo
# CONDITION DETAILS: dosage 320 g/ha
OUTCOME MEASURE: herbicidal action ECHCG (%)

molecule=CCCn1nnnc1NC(=O)c1ccc(C)c(CSC)c1Cl units_symbol=% obs_value=100
molecule=CCn1nnnc1NC(=O)c1ccc(C(F)(F)F)c(CS(=O)(=O)CC)c1Cl units_symbol=% obs_value=100
molecule="CCCn1nnnc1NC(=O)c1ccc(C(F)F)c(C[S+](C)[O-])c1C (stereo not shown)" units_symbol=% obs_value=90
molecule=CCn1nnnc1NC(=O)c1ccc(S(C)(=O)=O)c(CSC)c1C units_symbol=% obs_value=90
molecule=CCCn1nnnc1NC(=O)c1ccc(C(F)(F)F)c(CS(=O)(=O)CC)c1Cl units_symbol=% obs_value=100
molecule=CCn1nnnc1NC(=O)c1ccc(S(C)(=O)=O)c(CS(C)(=O)=O)c1C units_symbol=% obs_value=90
molecule=CSCc1c(C)ccc(C(=O)Nc2nnnn2C)c1Cl units_symbol=% obs_value=80
molecule="Cc1ccc(C(=O)Nc2nnnn2C)c(Cl)c1C[S+](C)[O-] (racemic)" units_symbol=% obs_value=90
molecule="CCn1nnnc1NC(=O)c1ccc(C)c(C[S+](C)[O-])c1Cl (stereo not shown)" units_symbol=% obs_value=100
molecule=CCCn1nnnc1NC(=O)c1ccc(C(F)F)c(CS(C)(=O)=O)c1C units_symbol=% obs_value=100
molecule=CCCn1nnnc1NC(=O)c1ccc(C(F)(F)F)c(CS(C)(=O)=O)c1Br units_symbol=% obs_value=90
molecule=COc1c(C(=O)Nc2nnnn2C)ccc(Cl)c1CSC units_symbol=% obs_value=90
molecule="CCCn1nnnc1NC(=O)c1ccc(C(F)(F)F)c(C[S+](C)[O-])c1OC (stereo not shown)" units_symbol=% obs_value=100
molecule=CCCn1nnnc1NC(=O)c1ccc(C(F)(F)F)c(CSC)c1SC units_symbol=% obs_value=100
molecule=CCCn1nnnc1NC(=O)c1ccc(C(F)(F)F)c(CSCC)c1C units_symbol=% obs_value=100
molecule=Cn1nnnc1NC(=O)c1ccc(C(F)(F)F)c(CS(C)(=O)=O)c1S(C)(=O)=O units_symbol=% obs_value=90
molecule=COc1c(C(=O)Nc2nnnn2C)ccc(C(F)(F)F)c1CS(C)(=O)=O units_symbol=% obs_value=100
molecule=CCCn1nnnc1NC(=O)c1ccc(S(C)(=O)=O)c(CS(C)(=O)=O)c1C units_symbol=% obs_value=90
molecule=CCS(=O)(=O)Cc1c(C(F)F)ccc(C(=O)Nc2nnnn2C)c1S(=O)(=O)CC units_symbol=% obs_value=100
molecule=CSCc1c(Cl)ccc(C(=O)Nc2nnnn2C)c1Cl units_symbol=% obs_value=100
molecule=CCCn1nnnc1NC(=O)c1ccc(C(F)(F)F)c(CSCC(F)(F)F)c1Cl units_symbol=% obs_value=80
molecule=CCCn1nnnc1NC(=O)c1ccc(C)c(CS(C)(=O)=O)c1Cl units_symbol=% obs_value=100
molecule="Cc1c(C(=O)Nc2nnnn2C)ccc(C(F)F)c1C[S+](C)[O-] (stereo not shown)" units_symbol=% obs_value=100
molecule=CCn1nnnc1NC(=O)c1ccc(Cl)c(CSC)c1Cl units_symbol=% obs_value=100
molecule="CCn1nnnc1NC(=O)c1ccc(C(F)F)c(C[S+](C)[O-])c1C (stereo not shown)" units_symbol=% obs_value=90

###

# System: Stellaria media
# EXPERIMENT NOTES: Post-emergence herbicidal action, STEME
# Format: in vivo
# Set-up: key: % herbicidal action vs untreated; 100 = plants died, 0 = like control
# CONDITION DETAILS: Dosage 80 g/ha
Entries and their herbicidal action STEME values follow.
OUTCOME MEASURE: herbicidal action STEME

molecule=CCCn1nnnc1NC(=O)c1ccc(C(F)(F)F)c(CS(=O)(=O)CC)c1Br obs_value=100
molecule=CCn1nnnc1NC(=O)c1ccc(C(F)F)c(CSC)c1Cl obs_value=100
molecule=CCCn1nnnc1NC(=O)c1ccc(C(F)F)c(CSCC)c1Cl obs_value=100
molecule="COc1c(C(=O)Nc2nnnn2C)ccc(C(F)(F)F)c1C[S+](C)[O-] (centres unmarked)" obs_value=90
molecule=CCn1nnnc1NC(=O)c1ccc(C(F)(F)F)c(CS(=O)(=O)CC)c1C obs_value=100

###

Quick reference: Herbicidal action against MATIN of the listed items.
# Test system: Matricaria inodora
# EXPERIMENT NOTES: Post-emergence herbicidal action, MATIN
# Assay type: in vivo
# Design: key: % herbicidal action vs untreated; 100 = plants died, 0 = like control
# CONDITION DETAILS: comparative experiment, post-emergence, 5 g of a.i./ha
OUTCOME MEASURE: Herbicidal action against MATIN

compound="CCSc1c(C(F)(F)F)ccc(C(=O)Nc2nnnn2C)c1Cl [Example V-4, reference compound]" obs_value=60
compound="Cn1nnnc1NC(=O)c1ccc(C(F)(F)F)c(CS(C)(=O)=O)c1Cl [Example 1-298]" obs_value=100
compound="COc1c(C(=O)Nc2nnnn2C)ccc(C(F)(F)F)c1CSC [Example 1-134]" obs_value=90
compound="CCSCc1c(C(F)(F)F)ccc(C(=O)Nc2nnnn2C)c1Cl [Example 1-299]" obs_value=80

###

# Test system: Lolium multiflorum
# EXPERIMENT NOTES: Post-emergence herbicidal action, LOLMU
# Assay type: in vivo
# Design: key: % herbicidal action: 100 = plants died, 0 = like control
# CONDITION DETAILS: post-emergence, dosage 80 g/ha
The following compounds are shown together with reported herbicidal action LOLMU values.
OUTCOME MEASURE: herbicidal action LOLMU

compound="CCSCc1c(C(F)(F)F)ccc(C(=O)Nc2nnnn2C)c1Cl [Example 1-299]" outcome_measure="herbicidal action LOLMU" obs_value=90%
compound="CCn1nnnc1NC(=O)c1ccc(C(F)(F)F)c(C[S+]([O-])CC)c1Br (stereo not drawn) [Example 2-384]" outcome_measure="herbicidal action LOLMU" obs_value=80%
compound="CCSCc1c(C(F)F)ccc(C(=O)Nc2nnnn2C)c1Cl [Example 1-323]" outcome_measure="herbicidal action LOLMU" obs_value=90%
compound="CCn1nnnc1NC(=O)c1ccc(C(F)(F)F)c(CSC)c1Cl [Example 2-296]" outcome_measure="herbicidal action LOLMU" obs_value=90%
compound="Cc1c(C(=O)Nc2nnnn2C)ccc(C(F)(F)F)c1C[S+](C)[O-] (stereo not drawn) [Example 1-84]" outcome_measure="herbicidal action LOLMU" obs_value=80%
compound="CC[S+]([O-])Cc1c(C(F)(F)F)ccc(C(=O)Nc2nnnn2C)c1Br (racemic) [Example 1-384]" outcome_measure="herbicidal action LOLMU" obs_value=90%
compound="Cn1nnnc1NC(=O)c1ccc(C(F)(F)F)c(CS(C)(=O)=O)c1Cl [Example 1-298]" outcome_measure="herbicidal action LOLMU" obs_value=80%
compound="CSCc1c(C(F)(F)F)ccc(C(=O)Nc2nnnn2C)c1C [Example 1-83]" outcome_measure="herbicidal action LOLMU" obs_value=80%
compound="CCSCc1c(C(F)(F)F)ccc(C(=O)Nc2nnnn2C)c1Br [Example 1-383]" outcome_measure="herbicidal action LOLMU" obs_value=90%
compound="CSCc1c(C(F)(F)F)ccc(C(=O)Nc2nnnn2C)c1Cl [Example 1-296]" outcome_measure="herbicidal action LOLMU" obs_value=90%
compound="CCn1nnnc1NC(=O)c1ccc(C(F)(F)F)c(CSC)c1Br [Example 2-380]" outcome_measure="herbicidal action LOLMU" obs_value=80%
compound="Cn1nnnc1NC(=O)c1ccc(C(F)F)c(CS(C)(=O)=O)c1Cl [Example 1-322]" outcome_measure="herbicidal action LOLMU" obs_value=90%
compound="CSCc1c(C(F)(F)F)ccc(C(=O)Nc2nnnn2C)c1Br [Example 1-380]" outcome_measure="herbicidal action LOLMU" obs_value=100%
compound="CCn1nnnc1NC(=O)c1ccc(C(F)F)c(CS(C)(=O)=O)c1Cl [Example 2-322]" outcome_measure="herbicidal action LOLMU" obs_value=80%
compound="CCn1nnnc1NC(=O)c1ccc(C(F)(F)F)c(C[S+](C)[O-])c1Br (stereo not drawn) [Example 2-381]" outcome_measure="herbicidal action LOLMU" obs_value=80%

###

# Tested on: Matricaria inodora
# EXPERIMENT NOTES: Post-emergence herbicidal action, MATIN
# Assay type: in vivo
# Design: key: % herbicidal action vs untreated; 100 = plants died, 0 = like control
# CONDITION DETAILS: post-emergence, dosage 80 g/ha
Reported Herbicidal action against MATIN is given for each of the following molecules.
OUTCOME MEASURE: Herbicidal action against MATIN

molecule="COc1c(C(=O)Nc2nnnn2C)ccc(Cl)c1CSC [Example 1-570]" obs_value=90
molecule="CCn1nnnc1NC(=O)c1ccc(C)c(CS(C)(=O)=O)c1Cl [Example 2-289]" obs_value=100
molecule="CCCn1nnnc1NC(=O)c1ccc(C)c(CSC)c1Cl [Example 3-287]" obs_value=100
molecule="CCCn1nnnc1NC(=O)c1ccc(C(F)(F)F)c(CS(C)(=O)=O)c1S(C)(=O)=O [Example 3-199]" obs_value=80
molecule="Cn1nnnc1NC(=O)c1ccc(C(F)(F)F)c(CS(=O)(=O)CC(F)(F)F)c1Cl [Example 1-313]" obs_value=90
molecule="CCCn1nnnc1NC(=O)c1ccc(C)c(CS(C)(=O)=O)c1Cl [Example 3-289]" obs_value=100
molecule="CCCn1nnnc1NC(=O)c1ccc(C(F)F)c(CS(C)(=O)=O)c1C [Example 3-109]" obs_value=100
molecule="COc1c(C(=O)Nc2nnnn2C)ccc(C(F)(F)F)c1CS(C)(=O)=O [Example 1-136]" obs_value=90
molecule="CCCn1nnnc1NC(=O)c1ccc(I)c(CSC)c1Cl [Example 3-362]" obs_value=90
molecule="CCCn1nnnc1NC(=O)c1ccc(S(C)(=O)=O)c(C[S+](C)[O-])c1C (stereo not shown) [Example 3-38]" obs_value=80
molecule="CCn1nnnc1NC(=O)c1ccc(I)c(CSC)c1Cl [Example 2-362]" obs_value=100
molecule="COc1c(C(=O)Nc2nnnn2C)ccc(C(F)(F)F)c1CSC [Example 1-134]" obs_value=100
molecule="CCCn1nnnc1NC(=O)c1ccc(C(F)F)c(C[S+](C)[O-])c1C (stereo not shown) [Example 3-108]" obs_value=90
